# Test system: SNB-75 CNS
# ASSAY DETAILS: NCI tumour cell line growth inhibition, 48 h
Known TGI of a selection of compounds
Kindly answer with a numeric value in µM, unit omitted.

COMPOUND	TGI, µM
NC(N)=N/N=C/c1c(-c2ccc([N+](=O)[O-])cc2)nc2sccn12	3.27
Cc1ccc2c(c1)C(=O)c1c-2n(CCCN)c(=O)c2cc([N+](=O)[O-])ccc12	1.07
CC1=CC(O)C(O)C2(C)C1CC1OC(=O)C(O)C3C(C)C(O)C4(O)OCC13C42 (stereo unspecified)	33.3

Let's switch to this compound now.
Query :: Recorded TGI for C/C(=C/CO[Si](C)(C)C(C)(C)C)C(=O)N(C)c1ccccc1I , please?
Result :: 33.4
